Just for reference, patent US6211214A is where these values come from.

- measurement_description: log p (partition coefficient octanol/water, determined experimentally from reversed phase HPLC)
- Format: physicochemical
- test_conditions: reversed phase hplc
readout_name: chromatographic logP

# compound, readout_name, result
rows = [
    ("CC(C#N)Oc1ccc(-c2ccc(C3COC(c4c(F)cccc4F)=N3)cc2)cc1Cl (stereo not shown)", "chromatographic logP", 4.06),
    ("COC(=O)C(Oc1ccc(-c2ccc(C3COC(c4c(F)cccc4F)=N3)cc2)cc1)C(C)C (stereo not shown)", "chromatographic logP", 4.56),
    ("CON=C(COc1ccc(-c2ccc(C3COC(c4c(F)cccc4Cl)=N3)cc2)cc1)c1ccccc1 (stereo not shown)", "chromatographic logP", 5.25),
    ("O=C(COc1ccc(-c2ccc(C3COC(c4ccccc4Cl)=N3)cc2)cc1)c1ccccc1 (stereo not shown)", "chromatographic logP", 4.38),
]

====

- measurement_description: log p (partition coefficient octanol/water, determined experimentally from reversed phase HPLC)
- Type: physicochemical
- test_conditions: reversed phase hplc, B isomer
readout_name: chromatographic logP

# compound, result
measured = [
    ("CCON=C(COc1ccc(-c2ccc(C3COC(c4c(F)cccc4F)=N3)cc2)cc1)c1ccc(C)c(C)c1 (stereo not drawn)", 5.62),
    ("C=CCON=C(C)COc1ccc(-c2ccc(C3COC(c4c(F)cccc4Cl)=N3)cc2)cc1 (stereo not drawn)", 5.11),
    ("CCON=C(COc1ccc(-c2ccc(C3COC(c4c(F)cccc4F)=N3)cc2)cc1)c1cccc(Cl)c1 (stereo not drawn)", 5.54),
    ("CCON=C(COc1ccc(-c2ccc(C3COC(c4c(F)cccc4F)=N3)cc2)cc1)C(C)C (stereo not drawn)", 5.49),
    ("CCON=C(COc1ccc(-c2ccc(C3COC(c4c(F)cccc4F)=N3)cc2)cc1)c1ccc(C(F)(F)F)cc1 (stereo not drawn)", 5.57),
    ("CON=C(COc1ccc(-c2ccc(C3COC(c4c(F)cccc4F)=N3)cc2)cc1)C1(Cl)CC1 (stereo not drawn)", 4.78),
    ("CON=C(COc1ccc(-c2ccc(C3COC(c4c(F)cccc4F)=N3)cc2)cc1)c1ccc(CC(C)C)cc1 (stereo not drawn)", 6.05),
    ("CC(COc1ccc(-c2ccc(C3COC(c4ccccc4Cl)=N3)cc2)cc1)=NOC(C)C (stereo not drawn)", 5.61),
    ("CON=C(C)C(C)Oc1ccc(-c2ccc(C3COC(c4c(F)cccc4F)=N3)cc2)cc1Cl (stereo not drawn)", 5.15),
    ("CCON=C(COc1ccc(-c2ccc(C3COC(c4c(F)cccc4F)=N3)cc2)cc1)c1ccc(OC(F)(F)C(F)F)cc1 (stereo not drawn)", 5.35),
    ("CC(=NOC(C)C)C(C)Oc1ccc(-c2ccc(C3COC(c4ccccc4Cl)=N3)cc2)cc1Cl (stereo not drawn)", 6.44),
    ("CCON=C(CC)COc1ccc(-c2ccc(C3COC(c4c(F)cccc4F)=N3)cc2)cc1 (stereo not drawn)", 4.9),
    ("CCON=C(COc1ccc(-c2ccc(C3COC(c4c(F)cccc4F)=N3)cc2)cc1)c1ccc(CC(C)C)cc1 (stereo not drawn)", 6.36),
    ("CCON=C(COc1ccc(-c2ccc(C3COC(c4c(F)cccc4F)=N3)cc2)cc1)c1ccc(Cl)cc1 (stereo not drawn)", 5.54),
    ("CC(COc1ccc(-c2ccc(C3COC(c4c(F)cccc4Cl)=N3)cc2)cc1)=NOCc1ccccc1 (stereo not drawn)", 5.53),
]
